- Tested on: HEK-293T
- ASSAY INFO: Multiplex assay against HEK293T
- Type: toxicity, cell-based
- ASSAY SETUP: human, 12 h, 1 µM, compound concentration 1 uM, replicate 2
Please respond with reported Population Hoechst High Intensity Objects (%) for every item in the list.
Note: unit % is implicit; provide only the numeric part.

According to the records, this compound CN(C)C(=O)N[C@H]1CC[C@H](CCN2CCN(c3cccc(Cl)c3Cl)CC2)CC1.Cl [CARIPRAZINE HYDROCHLORIDE] displays Population Hoechst High Intensity Objects (%) of 4

compound `C=CC(=O)Nc1ccc2ncnc(Nc3ccc(OCc4cccc(F)c4)c(Cl)c3)c2c1.Cc1ccc(S(=O)(=O)O)cc1` , Population Hoechst High Intensity Objects (%) observed: 2

Value of measured Population Hoechst High Intensity Objects (%) for the entry `COc1cc2nccc(Oc3ccc(NC(=O)Nc4cc(C)on4)c(Cl)c3)c2cc1OC.O` : 2

Please fill in: Population Hoechst High Intensity Objects (%) reported for `COc1ncc(-c2ccc3nccc(-c4ccnnc4)c3c2)cc1NS(=O)(=O)c1ccc(F)cc1F` = 6

What the record says about `Cc1cc(C)cc(-c2cnc3cc(Cl)c(-c4cccc(O)c4)cc3c2OCCCN)c1` : Population Hoechst High Intensity Objects (%) is 3

Sample `OC1(c2ccc(Cl)cc2)CCN(Cc2c[nH]c3ccccc23)CC1` ; Population Hoechst High Intensity Objects (%) observed: 6

// `Cn1cc(-c2[nH]c3cc(NC(=O)[C@H](N)C4CCCCC4)cc4c3c2C=NNC4=O)cn1` : Population Hoechst High Intensity Objects (%) value = 6

====

- Test system: Fibroblast
- ASSAY INFO: Multiplex assay against human fibroblast
- Assay type: toxicity, cell-based
- ASSAY SETUP: 12 h, 10 µM, compound concentration 10 uM, replicate 1
MEASURED METRIC: Total Cell Count
Answer as a number with no unit attached.

Reported Total Cell Count of `Cc1c(-c2ccc(O)cc2)n(Cc2ccc(OCCN3CCCCCC3)cc2)c2ccc(O)cc12` : 149

For record `C=CC(=O)Nc1cccc(C(=O)Nc2ccc(Nc3cc(-c4[nH]c(SC)nc4C)ccn3)cc2)c1` the listed Total Cell Count is 109

Noted for `Cn1cc(-c2[nH]c3cc(NC(=O)[C@H](N)C4CCCCC4)cc4c3c2C=NNC4=O)cn1` : its Total Cell Count reads 244

====

- Test system: Fibroblast
- ASSAY INFO: Multiplex assay against human fibroblast
- Type: toxicity, cell-based
- ASSAY SETUP: 48 h, 10 µM, compound concentration 10 uM, replicate 2
MEASURED METRIC: Population Membrane Permeable-Phenotype (%)
I'd appreciate it if you wrote the number followed by its unit.

The compound COc1cccc([C@@H](C)NCCCc2ccccc2Cl)c1.Cl [TECALCET HYDROCHLORIDE] showed Population Membrane Permeable-Phenotype (%) equal to 0%

In plain terms, `C=CC(=O)Nc1cccc(C(=O)Nc2ccc(Nc3cc(-c4[nH]c(SC)nc4C)ccn3)cc2)c1` has a documented Population Membrane Permeable-Phenotype (%) of 20%

The reported Population Membrane Permeable-Phenotype (%) of the compound CC(C)NCC(O)COc1ccc(CCOCC2CC2)cc1.Cl (stereo unspecified) [BETAXOLOL HYDROCHLORIDE] was 15%

Looking up Cl.N#Cc1ccc2[nH]cc(CCCCN3CCN(c4ccc5oc(C(N)=O)cc5c4)CC3)c2c1 [VILAZODONE HYDROCHLORIDE] , I found its Population Membrane Permeable-Phenotype (%) recorded as 31%

Item: Cc1c(-c2ccc(O)cc2)n(Cc2ccc(OCCN3CCCCCC3)cc2)c2ccc(O)cc12 [BAZEDOXIFENE] | Population Membrane Permeable-Phenotype (%): 21%

For `Cc1cc(C)cc(-c2cnc3cc(Cl)c(-c4cccc(O)c4)cc3c2OCCCN)c1` the compound record lists Population Membrane Permeable-Phenotype (%) as 12%

Noted for `Cc1csc2c(N[C@@H](C)CN3CCN(S(=O)(=O)c4ccc(Cl)c(Cl)c4)CC3)ncnc12` : its Population Membrane Permeable-Phenotype (%) reads 2%

Population Membrane Permeable-Phenotype (%) reading for CN1CCN(c2ccc(OC(F)(F)F)c(Nc3ncc4c(n3)-c3c(c(C(N)=O)nn3CCO)CC4)c2)CC1 [ONVANSERTIB] : 7%

Consider CC[C@H](C)C(=O)O[C@H]1C[C@@H](C)C=C2C=C[C@H](C)[C@H](CC[C@@H]3C[C@@H](O)CC(=O)O3)[C@H]21 [LOVASTATIN] . Its measured Population Membrane Permeable-Phenotype (%) is 14%

Recorded result, CCOCCn1cc(C(=O)Nc2ccc(-n3nc(-c4cccnc4)cc3C(F)(F)F)cn2)ccc1=O [BI 1935] , Population Membrane Permeable-Phenotype (%): 11%

Per the record, C[C@@H](NCCCc1cccc(C(F)(F)F)c1)c1cccc2ccccc12.Cl [CINACALCET HYDROCHLORIDE] has Population Membrane Permeable-Phenotype (%) of 25%

So, c1cn2cc(-c3ccc4cn[nH]c4c3)nc(Nc3ccc(N4CCOCC4)cc3)c2n1 [ENTOSPLETINIB] ? Its Population Membrane Permeable-Phenotype (%) was 12%

For this compound ( CN1CCC[C@@H]1CCO[C@](C)(c1ccccc1)c1ccc(Cl)cc1.O=C(O)/C=C/C(=O)O [CLEMASTINE FUMARATE] ), measured Population Membrane Permeable-Phenotype (%) is 3%

Population Membrane Permeable-Phenotype (%) measured on `CC(C)(O)CNc1ncc(-c2ccnc(Nc3ccnc(Cl)c3)n2)c(CC2CC2)n1` = 7%

For this compound ( Cc1nc(-c2ccc(-c3ccc(C(=O)N4CCc5cc6c(cc54)C4(CCN(C)CC4)CO6)cc3)c(C)c2)no1 [SB-224289] ), measured Population Membrane Permeable-Phenotype (%) is 14%

// field: Population Membrane Permeable-Phenotype (%); key: `CNc1nc(NCc2ccc(NS(C)(=O)=O)cc2Cl)cc(-c2ccccn2)n1` ; value = 15%

====

- Test system: HEK-293T
- ASSAY INFO: Multiplex assay against HEK293T
- Assay type: toxicity, cell-based
- ASSAY SETUP: human, 24 h, 10 µM, compound concentration 10 uM, replicate 2
MEASURED METRIC: Population Mitotic Cells (%)
Return type: number; implicit unit %.

For record Cc1c(-c2ccc(O)cc2)n(Cc2ccc(OCCN3CCCCCC3)cc2)c2ccc(O)cc12 [BAZEDOXIFENE] the listed Population Mitotic Cells (%) is 10

// Population Mitotic Cells (%) value for CN1CCC[C@@H]1CCO[C@](C)(c1ccccc1)c1ccc(Cl)cc1.O=C(O)/C=C/C(=O)O [CLEMASTINE FUMARATE] : 7

Data point: `Cc1[nH]c(/C=C2\C(=O)Nc3ccc(S(=O)(=O)N(C)c4cccc(Cl)c4)cc32)c(C)c1C(=O)N1CCN(C)CC1` ; Population Mitotic Cells (%) = 16

Summary for this compound, C[C@@H](NCCCc1cccc(C(F)(F)F)c1)c1cccc2ccccc12.Cl [CINACALCET HYDROCHLORIDE] : Population Mitotic Cells (%) is 13

Recorded result, `CC(C)(O)CNc1ncc(-c2ccnc(Nc3ccnc(Cl)c3)n2)c(CC2CC2)n1` , Population Mitotic Cells (%): 35

Per the records, this compound ( C=CC(=O)Nc1cc2c(Nc3ccc(F)c(Cl)c3)ncnc2cc1OCCCN1CCOCC1.Cl.Cl [CANERTINIB DIHYDROCHLORIDE] ) has Population Mitotic Cells (%) equal to 89

According to the records, this compound `COc1cc(-n2cnc3cc(-c4ccc(Cl)cc4)sc3c2=O)ccc1OCCN1CCCC1` displays Population Mitotic Cells (%) of 9

Record `COc1cc2nccc(Oc3ccc(NC(=O)Nc4cc(C)on4)c(Cl)c3)c2cc1OC.O` , field Population Mitotic Cells (%): 23

====

Provide the reported Growth Rate of each item.
- Tested on: U2OS
- ASSAY INFO: Incucyte cell viability with U2OS; also: filed as whole numbers so only -1 and 0 and 1 occur
- Assay type: toxicity, cell-based
- ASSAY SETUP: human, 12 h, 10 µM, compound concentration 10 uM, replicate number 1, timepoint 12 hours
Respond numerically, and do not add a unit to the figure.

molecule Cl.N#Cc1ccc2[nH]cc(CCCCN3CCN(c4ccc5oc(C(N)=O)cc5c4)CC3)c2c1 [VILAZODONE HYDROCHLORIDE] , Growth Rate observed: 1

Value of measured Growth Rate for the entry `CN1CCN(c2ccc(OC(F)(F)F)c(Nc3ncc4c(n3)-c3c(c(C(N)=O)nn3CCO)CC4)c2)CC1` : 0

Recorded Growth Rate (molecule `Cc1nc(-c2cn3c(n2)-c2ccc(-c4cnn(C(C)(C)C(N)=O)c4)cc2OCC3)n(C(C)C)n1` ): 1

Record summary for `CCn1cc(-c2cccc(C(F)(F)F)c2)c2sc(C(=N)NC3CCS(=O)(=O)CC3)cc2c1=O` : reported Growth Rate = 0

molecule `Cn1cc(-c2[nH]c3cc(NC(=O)[C@H](N)C4CCCCC4)cc4c3c2C=NNC4=O)cn1` , Growth Rate observed: 0

The value of Growth Rate measured for the molecule `CC1(C)CCC(C)(C)c2cc(C3(c4ccc(C(=O)O)cc4)OCCO3)ccc21` turned out to be 1

Measured Growth Rate, `Nc1nc(NCc2ccccc2)nc(-c2ccccc2CO)n1` : 1

The molecule listed as `N[C@H](C(=O)O)c1ccc(C(=O)O)c(C(=O)O)c1` has a reported Growth Rate of 1

# molecule `O=c1nc(-c2ccccn2)sc2ccccc12` ; its Growth Rate = 0
